Values of pIC50 reported for Androgen receptor (Rattus norvegicus) appear below.
Answers are plain numbers, as −log10 of the molar value.

{"compound": "C[C@]12CCC(=O)C=C1CC[C@@H]1[C@@H]2CC[C@@]2(C)[C@H]1CC[C@@]21CCCO1", "system.tested": "Androgen receptor (Rattus norvegicus)", "pIC50": 7.05}
{"compound": "CC(=O)[C@H]1[C@H](C)C[C@H]2[C@@H]3CCC4N(C)C(=O)CC[C@]4(C)[C@H]3CC[C@@]21C (some centres undefined)", "system.tested": "Androgen receptor (Rattus norvegicus)", "pIC50": 6.54}

# context switch: different compound, same pIC50
Measured pIC50 of CC(=O)N[C@@H]1CC[C@H]2[C@@H]3CCC4N(C)C(=O)CC[C@]4(C)[C@H]3CC[C@]12C (some centres undefined) : 4.40

* * *

# system.tested: Steroid 5-alpha-reductase (Rattus norvegicus, UniProt P24008+P31214)
# protocol.text: Inhibition of Steroid 5-alpha-reductase from rat prostate
# Type: tissue-based, Prostate gland
measured.property: IC50

{"compound": "CC(=O)[C@H]1CC[C@H]2[C@@H]3CCC4NC(=O)CC[C@]4(C)[C@H]3CC[C@]12C (stereo not given in full)", "measured.result": "5e-08 M"}
{"compound": "C=C1C[C@@H]2[C@H](CC[C@@]3(C)[C@H]2CC[C@]3(OC(C)=O)C(C)=O)[C@@]2(C)CCC(=O)C=C12", "measured.result": "1.6e-07 M"}
{"compound": "C[C@]12CCC(=O)C=C1CC[C@@H]1[C@@H]2CC[C@@]2(C)[C@H]1CC[C@@]21CCCO1", "measured.result": "1.1e-06 M"}
{"compound": "CCN(CC)C(=O)[C@H]1CC[C@H]2[C@@H]3CCC4=C(C#N)C(=O)CC[C@]4(C)[C@H]3CC[C@]12C", "measured.result": "2.9e-08 M"}
{"compound": "CC(O)[C@H]1CC[C@H]2[C@@H]3CCC4NC(=O)CC[C@]4(C)[C@H]3CC[C@]12C (stereo not given in full)", "measured.result": "4.5e-08 M"}

Return reported IC50 values for all items listed beneath this line.
1. C[C@]12CC[C@H]3[C@@H](CCC4=CC(=O)CC[C@@H]43)[C@@H]1CC[C@@]21CCCO1
2. C[C@]12CC[C@H]3[C@@H](CCC4=CC(=O)CC[C@@]43C)[C@@H]1CC[C@@H]2C(=O)O
3. CC(O)[C@H]1CC[C@H]2[C@@H]3CCC4N(C)C(=O)CC[C@]4(C)[C@H]3CC[C@]12C (stereo not given in full)
4. C[C@]12CC[C@H]3[C@@H](CCC4NC(=O)CC[C@@]43C)[C@@H]1CC[C@@H]2O (stereo not given in full)
5. CCN(CC)C(=O)[C@H]1CC[C@H]2[C@@H]3CCC4=CC(=O)CC[C@]4(C)[C@H]3CC[C@]12C
6. C[C@]12CCC(=O)C[C@@H]1CC[C@@H]1[C@@H]2CC[C@]2(C)[C@@H](O)CC[C@@H]12

1. 1.5e-06 M
2. 6.6e-07 M
3. 1.9e-08 M
4. 2.5e-07 M
5. 7.6e-07 M
6. >> 1e-6 M

Return reported IC50 values for all items listed beneath this line.
1. CC(=O)[C@H]1CC[C@H]2[C@@H]3CCC4N(C)C(=O)CC[C@]4(C)[C@H]3CC[C@]12C (stereo not given in full)
2. CN1C(=O)CC[C@@]2(C)C1CC[C@H]1[C@@H]3CC[C@H](O)[C@@]3(C)CC[C@@H]12 (stereo not given in full)
3. COC(=O)[C@H]1CC[C@H]2[C@@H]3CCC4=CC(=O)CC[C@]4(C)[C@H]3CC[C@]12C
4. C[C@]12CCC(=O)CC1CC[C@@H]1[C@@H]2CC[C@@]2(C)[C@H]1CC[C@@]21CCCO1 (stereo not given in full)

["2.3e-08 M", "1.5e-07 M", "4.8e-07 M", "> 1e-06 M"]
